I'd appreciate it if you could supply MIC values for the items below.
System: BS1723 B. subtilis BS168 WT wild type
Assay Procedure: broth dilution MIC, B. subtilis BS1723
Type: cell-based
Details: Bacillus subtilis, BS1723 B. subtilis BS168 WT wild type; read-out: MIC

Recorded MIC for CC[C@H]1OC(=O)[C@H](C)C(=O)C[C@@H](O[C@@H]2OC(C)CC(N(C)C)C2O)[C@](C)(OC)C[C@@H](C)CN(C(C)=O)[C@H](C)[C@H]2N(CCCCn3cc(-c4cccnn4)nn3)C(=O)O[C@]12C (stereo partly drawn) [FSM-10794] , please?
> 32 µg/mL

Recorded MIC for CC[C@H]1OC(=O)[C@H](C)C(=O)C[C@@H](O[C@@H]2OC(C)CC(N(C)C)C2O)[C@](C)(OC)C[C@@H](C)CN(C(C)=O)[C@H](C)[C@H]2N(CCCCN=[N+]=[N-])C(=O)O[C@]12C (stereo partly drawn) [FSM-10789] , please?
> 32 µg/mL

Recorded MIC for CC[C@H]1OC(=O)[C@](C)(F)C(=O)C[C@@H](O[C@@H]2OC(C)CC(N(C)C)C2O)[C@](C)(OC)C[C@@H](C)CN[C@H](C)[C@H]2N(CCCCn3cc(-c4nc5ccccc5s4)nn3)C(=O)O[C@]12C (stereo partly drawn) [FSM-10671] , please?
> 32 µg/mL

Recorded MIC for CC[C@H]1OC(=O)[C@](C)(F)C(=O)C[C@@H](O[C@@H]2OC(C)CC(N(C)C)C2O)[C@](C)(OC)C[C@@H](C)CN[C@H](C)[C@H]2N(CCCCn3cc(-c4nccs4)nn3)C(=O)O[C@]12C (stereo partly drawn) [FSM-10666] , please?
> 32 µg/mL

Recorded MIC for CC[C@H]1OC(=O)C(C)C(=O)[C@@H](C)[C@@H](O[C@@H]2OC(C)CC(N(C)C)C2O)[C@](C)(OC)C[C@@H](C)CN[C@H](C)[C@H]2N(CCCCn3cc(-c4ccccn4)nn3)C(=O)O[C@]12C (stereo partly drawn) [FSM-20754] , please?
2 µg/mL

Recorded MIC for CC[C@H]1OC(=O)C(C)(F)C(=O)[C@@H](C)[C@@H](O[C@@H]2OC(C)CC(N(C)C)C2O)[C@](C)(OC)C[C@@H](C)CN[C@H](C)[C@H]2N(CCCCn3cc(-c4ccccn4)nn3)C(=O)O[C@]12C (stereo partly drawn) [FSM-20716] , please?
8 µg/mL

Recorded MIC for CC[C@H]1OC(=O)[C@H](C)C(=O)C[C@@H](O[C@@H]2OC(C)CC(N(C)C)C2O)[C@@](C)(OC)C[C@@H](C)CN[C@H](C)[C@H]2N(CCCCn3cc(-c4nccs4)nn3)C(=O)O[C@]12C (stereo partly drawn) [FSM-30501] , please?
> 32 µg/mL

Recorded MIC for CC[C@H]1OC(=O)[C@H](C)C(=O)C[C@@H](O[C@@H]2OC(C)CC(N(C)C)C2O)[C@@](C)(OC)C[C@@H](C)CN(C(C)=O)[C@H](C)[C@H]2N(CCCCn3cc(-c4cccnn4)nn3)C(=O)O[C@]12C (stereo partly drawn) [FSM-30513] , please?
> 32 µg/mL

Recorded MIC for CC[C@H]1OC(=O)[C@H](C)C(=O)C[C@@H](O[C@@H]2OC(C)CC(N(C)C)C2O)[C@](C)(OC)C[C@@H](C)CN[C@H](C)[C@H]2N(CCCCn3cc(-c4nccs4)nn3)C(=O)O[C@]12C (stereo partly drawn) [FSM-10787] , please?
> 32 µg/mL

All values here come from patent US9982005B2.
